Can you tell me self-aminoacylation for the items I'm about to list?
test system: biotinyl-Met-oxazolone; test: self-aminoacylation, catalytic enhancement (BMO) (fold over background); higher = more active; k-Seq, kA / k0A0; sequences stand for … in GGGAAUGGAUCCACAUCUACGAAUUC…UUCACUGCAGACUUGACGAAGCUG
Variants at the floor of the assay were thinned out.
The response must contain the number and no unit.

Item AUUACCCUGGUCACCGGGUGA [Fam2.1 aminoacylation ribozyme variant] has what recorded self-aminoacylation?
14.5

Cool, now AUUCACCUAGGACAUCGGGUA [Fam2.2 aminoacylation ribozyme variant]
2.72

Cool, now AUUCACCUAGGUCAUGGGGUC [Fam2.2 aminoacylation ribozyme variant]
1.39

Cool, now AUUCACCUAGGUCAUCGGGAU [Fam2.2 aminoacylation ribozyme variant]
6.11

Cool, now AUUGACCUAGGUCAGCGGGUG [Fam2.2 aminoacylation ribozyme variant]
2.59

Cool, now CUCCGUCAAACAAUCGGUCUG [Fam1A.1 aminoacylation ribozyme variant]
1.02

Cool, now AAGUUUGCCAAUAGACGCAAG [Fam3.1 aminoacylation ribozyme variant]
0.625

Cool, now AAGUUUCCGAAUAGUCGCAAG [Fam3.1 aminoacylation ribozyme variant]
1.73

Cool, now AGUCACCUAGGUCAUAGGGUG [Fam2.2 aminoacylation ribozyme variant]
3.12

Cool, now GUUACCCUAGUCAUCGAGUGA [Fam2.1 aminoacylation ribozyme variant]
6.66

Cool, now AAGUAUGCUAAUAAUCGCAAG [Fam3.1 aminoacylation ribozyme variant]
1.28

Cool, now AAGUUUUCUAAUAGUAGCAAG [Fam3.1 aminoacylation ribozyme variant]
1.29

Cool, now CUACUUCAGACCAUCGGUCUG [Fam1A.1 aminoacylation ribozyme variant]
1.25

Cool, now CUAAUUCAAACAAUCGAUCUG [Fam1A.1 aminoacylation ribozyme variant]
0.43

Cool, now AAGUUUGCUAAUAGUCCGAAG [Fam3.1 aminoacylation ribozyme variant]
1.02

Cool, now AAGUUUGCUAGUAGUUGCAAG [Fam3.1 aminoacylation ribozyme variant]
1.04

Cool, now AUGAUUGCUAAUAGUCGCAAG [Fam3.1 aminoacylation ribozyme variant]
1.67

Cool, now AUUCAUCUAGGUCAUCGGGAG [Fam2.2 aminoacylation ribozyme variant]
0.945

Cool, now AAGUUUAUUAAUAGUCGCAAG [Fam3.1 aminoacylation ribozyme variant]
1.95

Cool, now AUUCUCCUAGGUCAUCGGGUU [Fam2.2 aminoacylation ribozyme variant]
3.79

Cool, now AUUACCCUGGUCCUGGAGUGA [Fam2.1 aminoacylation ribozyme variant]
3.13

Cool, now CUACUUCAAACAAUAGGUCUA [Fam1A.1 aminoacylation ribozyme variant]
0.699

Cool, now AGUCACCUAGGUCAUCGGGUC [Fam2.2 aminoacylation ribozyme variant]
2.13

Cool, now UUUCACAUAGGUCAUCGGGUG [Fam2.2 aminoacylation ribozyme variant]
7.92

Cool, now AAGUUUGCUAAUAGCAGCAAG [Fam3.1 aminoacylation ribozyme variant]
0.683

Cool, now AUUACCCUGUUCAUCGAGUGA [Fam2.1 aminoacylation ribozyme variant]
5.57

Cool, now CUUCUUCAAACAGUCGGUCUG [Fam1A.1 aminoacylation ribozyme variant]
0.821

Cool, now AUUACCCUGGUCAUAUAGUGA [Fam2.1 aminoacylation ribozyme variant]
11.2

Cool, now CUACUUGAAACAAUGGGUCUG [Fam1A.1 aminoacylation ribozyme variant]
1.65

Cool, now AUUAGCCUGGUGAUCGAGUGA [Fam2.1 aminoacylation ribozyme variant]
7.43

Cool, now CCACACUUCCAGCAAUCGGAC [Fam1B.1 aminoacylation ribozyme variant]
0.797

Cool, now AAGUUUGCUAACAGUCGCAAG [Fam3.1 aminoacylation ribozyme variant]
1.29

Cool, now AUUCAUCUAGGUCAUCGGGCG [Fam2.2 aminoacylation ribozyme variant]
3.33

Cool, now AUUACCCUAGUAAUCGAGUGA [Fam2.1 aminoacylation ribozyme variant]
6.75

Cool, now AAGCUUGCUAAAAGUCGCAAG [Fam3.1 aminoacylation ribozyme variant]
3.31

* * *

system: biotinyl-Met-oxazolone; assay: self-aminoacylation, catalytic enhancement (BMO) (fold over background); higher = more active; k-Seq, kA / k0A0; sequences stand for … in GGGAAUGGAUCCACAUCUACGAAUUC…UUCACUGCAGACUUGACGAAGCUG
Variants at the floor of the assay were thinned out.
So basically every entry gets a class from its self-aminoacylation, ranges being category 1 = under 1, category 2 = from 1 up to 4, category 3 = 4 and over

Exercise: read the entry AUACACCUAGCUCAUCGGGUG [Fam2.2 aminoacylation ribozyme variant] and state which class it falls under.
category 2

Cool, now AAGUUUGCUAAUAGACGCAAG [Fam3.1 aminoacylation ribozyme variant]
category 1

Cool, now AUUCUCCUAGGUUAUCGGGUG [Fam2.2 aminoacylation ribozyme variant]
category 3

Cool, now CCACACUUCGAGCCAUCGGUC [Fam1B.1 aminoacylation ribozyme variant]
category 2

Cool, now GUUCACCUAGGUCAUCGGGUA [Fam2.2 aminoacylation ribozyme variant]
category 3

Cool, now AAGUUUGCUAAUAGGCGCACG [Fam3.1 aminoacylation ribozyme variant]
category 1

Cool, now CUACUUCAUACAAUUGGUCUG [Fam1A.1 aminoacylation ribozyme variant]
category 1

Cool, now UUUCACCUAGGUCAUCGUGUG [Fam2.2 aminoacylation ribozyme variant]
category 2

Cool, now AGUACCCUGGUCAUCGAGGGA [Fam2.1 aminoacylation ribozyme variant]
category 2

Cool, now GUUACCCUGGUCAUCGAGCGA [Fam2.1 aminoacylation ribozyme variant]
category 3

Cool, now AUUCACCUACGUCAUCAGGUG [Fam2.2 aminoacylation ribozyme variant]
category 2

Cool, now AGUACCCUCGUCAUCGAGUGA [Fam2.1 aminoacylation ribozyme variant]
category 2

Cool, now AUUACCCCGGUCAUCGAGGGA [Fam2.1 aminoacylation ribozyme variant]
category 2

Cool, now AUUGACCGAGGUCAUCGGGUG [Fam2.2 aminoacylation ribozyme variant]
category 3

Cool, now AUUACCCUGGUCAUCCAAUGA [Fam2.1 aminoacylation ribozyme variant]
category 2

Cool, now AUUCCCCUAGGUCAACGGGUG [Fam2.2 aminoacylation ribozyme variant]
category 3

Cool, now AUUCACCUAGUGCAUCGGGUG [Fam2.2 aminoacylation ribozyme variant]
category 2

Cool, now AUUACCCUGGUCAUCGAUAGA [Fam2.1 aminoacylation ribozyme variant]
category 1

Cool, now AUUACCCUGCUCUUCGAGUGA [Fam2.1 aminoacylation ribozyme variant]
category 2

Cool, now AUAACCCUGGCCAUCGAGUGA [Fam2.1 aminoacylation ribozyme variant]
category 3

Cool, now UUUCACCUAGGUCAUCGGGUU [Fam2.2 aminoacylation ribozyme variant]
category 3

Cool, now CAACACUGCAAGCAAUCGGUC [Fam1B.1 aminoacylation ribozyme variant]
category 2

Cool, now AUUCACCUAGGUCUUCGGGUU [Fam2.2 aminoacylation ribozyme variant]
category 2

Cool, now AAGUUUGAUAAAAGUCGCAAG [Fam3.1 aminoacylation ribozyme variant]
category 2

Cool, now CUACUUCAAACACUCAGUCUG [Fam1A.1 aminoacylation ribozyme variant]
category 1

Cool, now AUAUUUGCUAAUAGUCGCAAG [Fam3.1 aminoacylation ribozyme variant]
category 2

Cool, now AUUGACCUAGGUGAUCGGGUG [Fam2.2 aminoacylation ribozyme variant]
category 3

Cool, now CUUCUUCAAACAAUCGGUAUG [Fam1A.1 aminoacylation ribozyme variant]
category 1

Cool, now AUGGACCUAGGUCAUCGGGUG [Fam2.2 aminoacylation ribozyme variant]
category 2

Cool, now CUACUUCAAACCAUCGGUCUC [Fam1A.1 aminoacylation ribozyme variant]
category 1

Cool, now AGUCACCUAGGUCCUCGGGUG [Fam2.2 aminoacylation ribozyme variant]
category 3

Cool, now AUGCACCUCGGUCAUCGGGUG [Fam2.2 aminoacylation ribozyme variant]
category 3

Cool, now CUGAUUCAAACAAUCGGUCUG [Fam1A.1 aminoacylation ribozyme variant]
category 1

Cool, now AAUCGCCUAGGUCAUCGGGUG [Fam2.2 aminoacylation ribozyme variant]
category 3

* * *

test system: biotinyl-Met-oxazolone; assay: self-aminoacylation, catalytic enhancement (BMO) (fold over background); higher = more active; k-Seq, kA / k0A0; sequences stand for … in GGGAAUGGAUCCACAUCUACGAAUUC…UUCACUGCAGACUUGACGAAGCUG
This sample holds only a part of the variants without activity.
Binary classification by self-aminoacylation, with 2 as an inclusive lower bound for T; all other cases are F.

Test whether the sequence AGUACCCUGUUCAUCGAGUGA [Fam2.1 aminoacylation ribozyme variant] records self-aminoacylation of 2 or higher.
T

Cool, now CGACAUUUCAAGCAAUCGGUC [Fam1B.1 aminoacylation ribozyme variant]
F

Cool, now UUACUACAAACAAUCGGUCUG [Fam1A.1 aminoacylation ribozyme variant]
F

Cool, now CCACACAUCAAGCACUCGGUC [Fam1B.1 aminoacylation ribozyme variant]
F

Cool, now ACGUUUGUUAAUAGUCGCAAG [Fam3.1 aminoacylation ribozyme variant]
T

Cool, now AUUCUCCUAGGUCAUCCGGUG [Fam2.2 aminoacylation ribozyme variant]
T

Cool, now AUUCACCUAGUUCAUUGGGUG [Fam2.2 aminoacylation ribozyme variant]
T

Cool, now CUACGUCGAACAAUCGGUCUG [Fam1A.1 aminoacylation ribozyme variant]
F
